test: Inhibition of IL-1beta-induced PGE2 production in human HCA-7 cells at 1 uM after 72 hrs by EIA; type: functional; conditions: HCA-7, 72 h
reported endpoint: inhibition at 1 µM (%)
Write the answer as a number in %, unit excluded.

Known results for compounds:
> print(dat)
                      smiles.representation  number
1          CC(=O)c1sc(Nc2ccc3c(c2)OCO3)nc1C    25.3
2     Clc1ccc(-c2csc(Nc3cccc4ccccc34)n2)cc1    51.4
3    COc1cccc(-c2csc(Nc3ccc4c(c3)OCO4)n2)c1    94.4
4  O=C(c1ccccc1)c1sc(Nc2ccc(Oc3ccccc3)cc2)nc1-c1ccccc1      42
5  COc1cccc(-c2csc(Nc3ccc(Oc4ccccc4)cc3)n2)c1    88.9
6  c1ccc(Oc2ccc(Nc3nc(-c4ccc(C5CCCCC5)cc4)cs3)cc2)cc1    41.6
7    COc1ccc(-c2csc(Nc3ccc4c(c3)OCO4)n2)cc1    96.2
8     COc1ccc(Nc2nc(-c3ccc(C)c(C)c3)cs2)cc1    73.9

Input: Need inhibition at 1 µM, item COc1ccccc1-c1csc(Nc2ccc3c(c2)OCO3)n1
Output: 89

Input: Need inhibition at 1 µM, item CCc1sc(Nc2ccc(Oc3ccccc3)cc2)nc1C
Output: 87.1

Input: Need inhibition at 1 µM, item c1ccc(-c2csc(Nc3ccc4c(c3)OCO4)n2)cc1
Output: 98.2

----------
test: Inhibition of IL-1beta-induced PGE2 production in human HCA-7 cells at 1 uM after 72 hrs by EIA; type: functional; details: HCA-7, 72 h
reported endpoint: inhibition at 1 µM (%)
Write the answer as a number in %, unit excluded.

> print(dat)
                    smiles.representation   reported.endpoint  u  number
1    CC(=O)c1sc(Nc2ccc(Oc3ccccc3)cc2)nc1C  inhibition at 1 µM  %    87.9
2  COc1ccc(Nc2nc(-c3ccc(Cl)cc3)c(C)s2)cc1  inhibition at 1 µM  %    89.3
3      COc1ccc(-c2csc(Nc3ccc(C)cc3)n2)cc1  inhibition at 1 µM  %    91.5

Input: Need inhibition at 1 µM, item Fc1ccc(-c2csc(Nc3ccc(Oc4ccccc4)cc3)n2)cc1
Output: 87.9
